Origin of the recorded values: the supplement of paper PMC11246515

# assay_procedure: total protein half-life in vivo (active degradation + dilution); higher = more stable protein
# experimental_parameters: wild type E. coli NCM3722; growth: C-lim chemostat; doubling time 3 h
assay_readout: total protein half-life in vivo

[in] # query: total protein half-life in vivo of entry MALLNVDKLSVHFGDESAPFRAVDRISYSVKQGEVVGIVGESGSGKSVSSLAIMGLIDYPGRVMAEKLEFNGQDLQRISEKERRNLVGAEVAMIFQDPMTSLNPCYTVGFQIMEAIKVHQGGNKSTRRQRAIDLLNQVGIPDPASRLDVYPHQLSGGMSQRVMIAMAIACRPKLLIADEPTTALDVTIQAQIIELLLELQQKENMALVLITHDLALVAEAAHKIIVMYAGQVVETGDAHAIFHAPRHPYTQALLRALPEFAQDKERLASLPGVVPGKYDRPNGCLLNPRCPYATDRCRAEEPALNMLADGRQSKCHYPLDDAGRPTL [P0AAG0]
[out] 3.12 h

Next:
[in] # query: total protein half-life in vivo of entry MIKQRTLKRIVQATGVGLHTGKKVTLTLRPAPANTGVIYRRTDLNPPVDFPADAKSVRDTMLCTCLVNEHDVRISTVEHLNAALAGLGIDNIVIEVNAPEIPIMDGSAAPFVYLLLDAGIDELNCAKKFVRIKETVRVEDGDKWAEFKPYNGFSLDFTIDFNHPAIDSSNQRYAMNFSADAFMRQISRARTFGFMRDIEYLQSRGLCLGGSFDCAIVVDDYRVLNEDGLRFEDEFVRHKMLDAIGDLFMCGHNIIGAFTAYKSGHALNNKLLQAVLAKQEAWEYVTFQDDAELPLAFKAPSAVLA [P0A725]
[out] 0.467 h

----------
# assay_procedure: total protein half-life in vivo (active degradation + dilution); higher = more stable protein
# experimental_parameters: E. coli NCM3722 delta-clpP; growth: N-lim chemostat; doubling time 6 h
assay_readout: total protein half-life in vivo (h)
Express it in h; write the number only.

Known total protein half-life in vivo results, listed for orientation:
[in] # query: total protein half-life in vivo of entry `MQILADLLNTIPAIDSTAMSRAQRHIDGLLKPVGSLGKLEVLAIQLAGMPGLNGIPHVGKKAVLVMCADHGVWEEGVAISPKEVTAIQAENMTRGTTGVCVLAEQAGANVHVIDVGIDTAEPIPGLINMRVARGSGNIASAPAMSRRQAEKLLLDVICYTQELAKNGVTLFGVGELGMANTTPAAAIVSTITGRDPEEVVGIGANLPTDKLANKIDVVRRAITLNQPNPQDGVDVLAKVGGFDLVGIAGVMLGAASCGLPVLLDGFLSYAAALAACQMSPAIKPYLIPSHLSAEKGARIALSHLGLEPYLNMEMRLGEGSGAALAMPIIEAACAIYNNMGELAASNIVLPGNTTSDLNS`
[out] 4.84

[in] # query: total protein half-life in vivo of entry `MRTQWPSPAKLNLFLYITGQRADGYHTLQTLFQFLDYGDTISIELRDDGDIRLLTPVEGVEHEDNLIVRAARLLMKTAADSGRLPTGSGANISIDKRLPMGGGLGGGSSNAATVLVALNHLWQCGLSMDELAEMGLTLGADVPVFVRGHAAFAEGVGEILTPVDPPEKWYLVAHPGVSIPTPVIFKDPELPRNTPKRSIETLLKCEFSNDCEVIARKRFREVDAVLSWLLEYAPSRLTGTGACVFAEFDTESEARQVLEQAPEWLNGFVAKGANLSPLHRAML`
[out] 4.11

Next, consider the following sequence.
[in] # query: total protein half-life in vivo of entry MMSQPAKVLLLYAHPESQDSVANRVLLKPATQLSNVTVHDLYAHYPDFFIDIPREQALLREHEVIVFQHPLYTYSCPALLKEWLDRVLSRGFASGPGGNQLAGKYWRSVITTGEPESAYRYDALNRYPMSDVLRPFELAAGMCRMHWLSPIIIYWARRQSAQELASHARAYGDWLANPLSPGGR [P0A756]
[out] 5.15

----------
Below is a list of entries, each paired with its recorded total protein half-life in vivo value.
# assay_procedure: total protein half-life in vivo (active degradation + dilution); higher = more stable protein
# experimental_parameters: E. coli NCM3722 delta-clpP; growth: N-lim chemostat; doubling time 6 h
Express it in h; write the number only.

[in] # query: total protein half-life in vivo of entry `MFDFASYHRAATLADAINLLADNPQAKLLAGGTDVLIQLHHHNDRYRHIVDIHNLAELRGITLAEDGSLRIGSATTFTQLIEDPITQRHLPALCAAATSIAGPQIRNVATYGGNICNGATSADSATPTLIYDAKLEIHSPRGVRFVPINGFHTGPGKVSLEHDEILVAFHFPPQPKEHAGSAHFKYAMRDAMDISTIGCAAHCRLDNGNFSELRLAFGVAAPTPIRCQHAEQTAQNAPLNLQTLEAISESVLQDVAPRSSWRASKEFRLHLIQTMTKKVISEAVAAAGGKLQ`
[out] 2.5

[in] # query: total protein half-life in vivo of entry MKKLKLHGFNNLTKSLSFCIYDICYAKTAEERDGYIAYIDELYNANRLTEILSETCSIIGANILNIARQDYEPQGASVTILVSEEPVDPKLIDKTEHPGPLPETVVAHLDKSHICVHTYPESHPEGGLCTFRADIEVSTCGVISPLKALNYLIHQLESDIVTIDYRVRGFTRDINGMKHFIDHEINSIQNFMSDDMKALYDMVDVNVYQENIFHTKMLLKEFDLKHYMFHTKPEDLTDSERQEITAALWKEMREIYYGRNMPAV [P0A7F6]
[out] 4.12

[in] # query: total protein half-life in vivo of entry `MNTLLLLAALSSQITFNTTQQGDVYTIIPEVTLTQSCLCRVQILSLREGSSGQSQTKQEKTLSLPANQPIALTKLSLNISPDDRVKIVVTVSDGQSLHLSQQWPPSSEKS`
[out] 3.33

Next:
[in] # query: total protein half-life in vivo of entry MAYSKIRQPKLSDVIEQQLEFLILEGTLRPGEKLPPERELAKQFDVSRPSLREAIQRLEAKGLLLRRQGGGTFVQSSLWQSFSDPLVELLSDHPESQYDLLETRHALEGIAAYYAALRSTDEDKERIRELHHAIELAQQSGDLDAESNAVLQYQIAVTEAAHNVVLLHLLRCMEPMLAQNVRQNFELLYSRREMLPLVSSHRTRIFEAIMAGKPEEAREASHRHLAFIEEILLDRSREESRRERSLRRLEQRKN [P0ACL9]
[out] 5.3

[in] # query: total protein half-life in vivo of entry `MRVLIVKTSSMGDVLHTLPALTDAQQAIPGIKFDWVVEEGFAQIPSWHAAVERVIPVAIRRWRKAWFSAPIKAERKAFREALQAENYDAVIDAQGLVKSAALVTRLAHGVKHGMDWQTAREPLASLFYNRKHHIAKQQHAVERTRELFAKSLGYSKPQTQGDYAIAQHFLTNLPTDAGEYAVFLHATTRDDKHWPEEHWRELIGLLADSGIRIKLPWGAPHEEERAKRLAEGFAYVEVLPKMSLEGVARVLAGAKFVVSVDTGLSHLTAALDRPNITVYGPTDPGLIGGYGKNQMVCRAPRENLINLNSQAVLEKLSSL`
[out] 5.02

[in] # query: total protein half-life in vivo of entry `MNIVVLISGNGSNLQAIIDACKTNKIKGTVRAVFSNKADAFGLERARQAGIATHTLIASAFDSREAYDRELIHEIDMYAPDVVVLAGFMRILSPAFVSHYAGRLLNIHPSLLPKYPGLHTHRQALENGDEEHGTSVHFVTDELDGGPVILQAKVPVFAGDSEDDITARVQTQEHAIYPLVISWFADGRLKMHENAAWLDGQRLPPQGYAADE`
[out] 4.97

----------
# assay_procedure: total protein half-life in vivo (active degradation + dilution); higher = more stable protein
# experimental_parameters: E. coli NCM3722 delta-smpB; growth: N-lim chemostat; doubling time 6 h
assay_readout: total protein half-life in vivo (h)
Express it in h; write the number only.

Known total protein half-life in vivo results, listed for orientation:
[in] # query: total protein half-life in vivo of entry `MKKLITANDIREAHARGEQAMSVVLRASIITPEAREVADLLGFTITECDESIPVTASVPASVPADKTESQRIRETIIAQLPEGQFTESLVAQLMEKVMKEKQSLEQGAMQPSFKSVTGKGGIKVIDGSSVKFGRFDGAEPHCVGLTDLVTGDDGSSMAAGFMQWENAFFPWTLNYDEIDMVLEGELHVRHEGQTMIAKAGDVMFIPKGSSIEFGTTSSVKFLYVAWPANWQSL`
[out] 1.55

[in] # query: total protein half-life in vivo of entry `MKNSKAILQVPGTMKIISAEIPVPKEDEVLIKVEYVGICGSDVHGFESGPFIPPKDPNQEIGLGHECAGTVVAVGSRVRKFKPGDRVNIEPGVPCGHCRYCLEGKYNICPDVDFMATQPNYRGALTHYLCHPESFTYKLPDNMDTMEGALVEPAAVGMHAAMLADVKPGKKIIILGAGCIGLMTLQACKCLGATEIAVVDVLEKRLAMAEQLGATVVINGAKEDTIARCQQFTEDMGADIVFETAGSAVTVKQAPYLVMRGGKIMIVGTVPGDSAINFLKINREVTIQTVFRYANRYPVTIEAISSGRFDVKSMVTHIYDYRDVQQAFEESVNNKRDIIKGVIKISD`
[out] 3.59

Next:
[in] # query: total protein half-life in vivo of entry MDQAGIIRDLLIWLEGHLDQPLSLDNVAAKAGYSKWHLQRMFKDVTGHAIGAYIRARRLSKSAVALRLTARPILDIALQYRFDSQQTFTRAFKKQFAQTPALYRRSPEWSAFGIRPPLRLGEFTMPEHKFVTLEDTPLIGVTQSYSCSLEQISDFRHEMRYQFWHDFLGNAPTIPPVLYGLNETRPSQDKDDEQEVFYTTALAQDQADGYVLTGHPVMLQGGEYVMFTYEGLGTGVQEFILTVYGTCMPMLNLTRRKGQDIERYYPAEDAKAGDRPINLRCELLIPIRR [P0ACI0]
[out] 5.37
